Where do the numbers come from? From the supplement of paper PMC6555819.

system: LXRb homodimer (NR concentration 270 nM); assay: PBM binding z-score (relative to random genomic background probes); higher = stronger binding; sequences stand for … in GC…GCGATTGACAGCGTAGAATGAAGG
Please mark condition met if the recorded PBM binding z-score is equal to or greater than -0.3, and condition not met if it falls below.

Below, 5 sequences whose answers are already recorded.
CGTCCAATGTCAGAGAGGTCAGTGAATGCCGAGT
condition met
CCTACTGGGCCAAAGGTCATTGATTCCAATGCTC
condition met
TCTTGTAGATCAACAGGAGGTTAAGGAAGATCGA
condition not met
CCAGACAGGTGAGAGGTAACTCAGTCTGGTACGC
condition not met
TCTACAGGGTCAAAGGCCAGAGTACGAATGTCGA
condition met

Is PBM binding z-score at least -0.3? Consider CCTGCTAGGTCATGGTCAGCAAATCTACAGTATG
condition met

Is PBM binding z-score at least -0.3? Consider ATCTCTAGGTAACAAGTGCAGTGAAAGAGAGGAC
condition met

Is PBM binding z-score at least -0.3? Consider CAAACTAGGTCACCGGAAGGTCGAAGTCCGCATG
condition met

Is PBM binding z-score at least -0.3? Consider GCTAGCAGGCCATTTGGGTCACTCAATGACGGGC
condition not met

Is PBM binding z-score at least -0.3? Consider GGAACGAGGGCAAAGTTTATAGCATCTGTCGACG
condition not met

Is PBM binding z-score at least -0.3? Consider GATACAGTGTCAGCTAGAGGCCAGAGTATGGAAA
condition not met

Is PBM binding z-score at least -0.3? Consider CCTTACGGGTCACGAGGCTATAGCACGACGAGCG
condition met

Is PBM binding z-score at least -0.3? Consider ATCTCTAGGTAAAATTCAGTGAAAGATCGATAGA
condition met

Is PBM binding z-score at least -0.3? Consider CGTCAAAGTTAAACTAAGGTAACGTAAAGCACGC
condition met

Is PBM binding z-score at least -0.3? Consider CGGACTGGGGCAGAAAGGTTACCATACCATCCGG
condition not met

Is PBM binding z-score at least -0.3? Consider AGAACGAGGGCAAGGAGTTGATAGCACGGGTGGC
condition not met

Is PBM binding z-score at least -0.3? Consider CGACCTAGGTCAGAACAGGACAGTGAAGGATGAT
condition not met

Is PBM binding z-score at least -0.3? Consider TCTACTAGTTGAAGGGCAACCGACGAGTCCGTTT
condition not met

Is PBM binding z-score at least -0.3? Consider TGTCAAAGTTCAAAGGTACCGTAAGTATCCACAC
condition met

Is PBM binding z-score at least -0.3? Consider TAGCCTAAGTCATTCAGGGGCCAGTATAGAAAGC
condition met

Is PBM binding z-score at least -0.3? Consider CAAACTAGGTCACCGGAAGGTCAAAGGCCGCATG
condition met

###

system: PXR homodimer (NR concentration 270 nM); assay: PBM binding z-score (relative to random genomic background probes); higher = stronger binding; sequences stand for … in GC…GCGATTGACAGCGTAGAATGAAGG
Please mark fulfilled if the recorded PBM binding z-score is equal to or greater than -0.06, and not fulfilled if it falls below.

Is PBM binding z-score at least -0.06? Consider TATACAGGGTCAAAGGCCAGATTACGAATGTCGA
fulfilled

Is PBM binding z-score at least -0.06? Consider AGAATGAGGTTATACCTAGATCAGGGAAGAAAGT
fulfilled

Is PBM binding z-score at least -0.06? Consider CCTACTGGGCCAAGGACATTGATCAGTCAAAGCA
not fulfilled

Is PBM binding z-score at least -0.06? Consider ACTATTAGTTGAGACGAGGGCAGCCGATAGGTTG
fulfilled

Is PBM binding z-score at least -0.06? Consider CCAGACAGGGGAAAGGTAACTCAGTCTGGTACGC
not fulfilled

Is PBM binding z-score at least -0.06? Consider ACAGACTGGTGATGAAGGTAACTCAGGCTATCAT
not fulfilled

Is PBM binding z-score at least -0.06? Consider CCTTACGGCTCAAGGTTATAGCACGGGTGGTACG
fulfilled

Is PBM binding z-score at least -0.06? Consider TAGCCTAGGTCAGATCGGGCCAGTATCCGCTATA
not fulfilled
